Origin of measurements: patent US20250170248A1

targetEntity: SMARCA2 (Homo sapiens, UniProt P51531)
Sequence (P51531 whole entry): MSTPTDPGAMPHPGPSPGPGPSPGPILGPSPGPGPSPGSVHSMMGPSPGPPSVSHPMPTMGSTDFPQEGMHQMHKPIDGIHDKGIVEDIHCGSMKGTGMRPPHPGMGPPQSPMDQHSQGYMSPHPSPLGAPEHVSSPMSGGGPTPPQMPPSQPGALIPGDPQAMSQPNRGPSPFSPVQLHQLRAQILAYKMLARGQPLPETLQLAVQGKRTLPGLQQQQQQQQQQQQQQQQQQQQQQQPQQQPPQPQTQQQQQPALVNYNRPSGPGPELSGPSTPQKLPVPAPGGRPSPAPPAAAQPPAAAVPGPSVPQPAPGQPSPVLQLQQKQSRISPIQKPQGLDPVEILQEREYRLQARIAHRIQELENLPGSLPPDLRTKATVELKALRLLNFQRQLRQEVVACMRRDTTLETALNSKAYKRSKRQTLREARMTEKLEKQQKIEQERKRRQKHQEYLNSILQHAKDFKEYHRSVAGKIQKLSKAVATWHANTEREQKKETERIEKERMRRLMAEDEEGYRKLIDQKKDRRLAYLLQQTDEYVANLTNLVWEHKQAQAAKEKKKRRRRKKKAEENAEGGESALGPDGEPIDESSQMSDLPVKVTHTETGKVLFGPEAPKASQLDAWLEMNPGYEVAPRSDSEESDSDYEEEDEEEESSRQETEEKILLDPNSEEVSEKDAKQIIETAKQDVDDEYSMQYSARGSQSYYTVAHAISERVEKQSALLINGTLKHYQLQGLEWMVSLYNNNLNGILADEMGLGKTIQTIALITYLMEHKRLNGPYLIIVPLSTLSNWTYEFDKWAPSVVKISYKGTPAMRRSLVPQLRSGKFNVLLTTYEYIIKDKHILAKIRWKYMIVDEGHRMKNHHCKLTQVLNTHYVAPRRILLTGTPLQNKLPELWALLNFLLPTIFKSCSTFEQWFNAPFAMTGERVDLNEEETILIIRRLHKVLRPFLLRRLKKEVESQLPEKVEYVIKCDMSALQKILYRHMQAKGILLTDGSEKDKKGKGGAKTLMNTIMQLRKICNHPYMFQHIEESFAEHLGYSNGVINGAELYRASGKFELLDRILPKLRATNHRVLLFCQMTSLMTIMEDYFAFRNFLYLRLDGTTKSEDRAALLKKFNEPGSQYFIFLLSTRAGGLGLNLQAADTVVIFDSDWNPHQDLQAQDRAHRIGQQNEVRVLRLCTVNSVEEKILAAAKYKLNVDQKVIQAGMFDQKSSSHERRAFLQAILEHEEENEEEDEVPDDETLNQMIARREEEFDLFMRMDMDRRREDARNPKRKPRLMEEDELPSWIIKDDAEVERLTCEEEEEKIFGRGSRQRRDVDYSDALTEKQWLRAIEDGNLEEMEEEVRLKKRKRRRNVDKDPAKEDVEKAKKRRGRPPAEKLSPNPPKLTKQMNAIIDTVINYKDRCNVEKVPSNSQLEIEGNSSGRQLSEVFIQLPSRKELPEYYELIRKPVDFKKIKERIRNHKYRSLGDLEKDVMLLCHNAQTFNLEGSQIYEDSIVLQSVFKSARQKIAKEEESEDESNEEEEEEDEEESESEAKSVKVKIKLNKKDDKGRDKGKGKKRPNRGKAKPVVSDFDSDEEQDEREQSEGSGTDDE
experiment: MSD SMARCA2 degradation in A549 cell line
Assay type: cell-based
protocolConditions: A549 cells, 24 h, read-out: SMARCA2 MSD A549 degradation 24 h: Average external-Abs DC50
quantity: DC50

>>> reportedvalue("C#Cc1ccc(CNC(=O)[C@@H]2C[C@@H](O)CN2C(=O)[C@@H](NC(=O)N2CCN(C[C@H]3CC[C@@H](N4CCC(N5CCc6[nH]c7nnc(-c8ccccc8O)cc7c6[C@H]5C)CC4)CC3)CC2)C(C)(C)C)cc1 [I-193]")
"> 100 nM"

Consider now this further compound.
Recorded DC50 for C#Cc1ccc(CNC(=O)[C@@H]2C[C@@H](O)CN2C(=O)[C@@H](NC(=O)[C@H]2CCC3(CC2)C[C@H](N2CCC(c4cnc(N5CCN6c7cc(-c8cccc(Cl)c8O)nnc7NC[C@H]6C5)nc4)CC2)C3)C(C)(C)C)cc1 (single isomer, unassigned) [I-152] , please? > 100 nM
